B1: SOAT1 (parent)
chain: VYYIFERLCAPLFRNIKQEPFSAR

Variants of: B1
Experiment: protein stability index of a GFP-peptide fusion (GPS, HEK-293T) (PSI 1-6); higher = more stable;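 also: lentivirally expressed fusions sorted by FACS into six bins by GFP to DsRed ratio, PSI derived from sequencing read proportions per bin multiplied by bin number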
Conditions: c terminus: a fixed tail appended
Each entry below carries its reported protein stability index.
Answer as a number with no unit attached.

Q: Please report the measured protein stability index for V1K
A: 1.55

Q: Give the value of protein stability index reported for the following: P11Q
A: 1.25

Q: Provide one value: measured protein stability index of E6T
A: 2.61

Q: Hello, please tell me recorded protein stability index for this one: S22W
A: 2.91

Q: Note down protein stability index recorded for E19K
A: 2.4

Q: Please indicate protein stability index recorded for I4W
A: 1.94

Further cases:
Q: Give protein stability index for N15C
A: 2.61

Q: Dear colleague, please send me the reported protein stability index for K17Q when you can.
A: 2.52

Q: Fill in protein stability index for record R24M
A: 2.64

Q: Supply recorded protein stability index for E19A here.
A: 2.12

Q: Given V1E , respond with its protein stability index.
A: 1.3

Q: Could you please provide reported protein stability index for F21C ? Thanks!
A: 1.99

Q: For V1I , write its protein stability index.
A: 1.82

Q: Specify reported protein stability index for the variant shown: E19H
A: 1.93

Q: Tell me its protein stability index given F21P as the entry.
A: 2.26

Q: State its protein stability index: K17C
A: 4.42

Q: Provide measured protein stability index value, entry: F21A
A: 2.07

Q: Kindly indicate its recorded protein stability index. Item: I4L
A: 2.64

Q: # return recorded protein stability index for entry E19P
A: 2.76
